Biological target: human GlyT1c transporter (Homo sapiens (Human), UniProt P48067)
Sequence (P48067 whole entry): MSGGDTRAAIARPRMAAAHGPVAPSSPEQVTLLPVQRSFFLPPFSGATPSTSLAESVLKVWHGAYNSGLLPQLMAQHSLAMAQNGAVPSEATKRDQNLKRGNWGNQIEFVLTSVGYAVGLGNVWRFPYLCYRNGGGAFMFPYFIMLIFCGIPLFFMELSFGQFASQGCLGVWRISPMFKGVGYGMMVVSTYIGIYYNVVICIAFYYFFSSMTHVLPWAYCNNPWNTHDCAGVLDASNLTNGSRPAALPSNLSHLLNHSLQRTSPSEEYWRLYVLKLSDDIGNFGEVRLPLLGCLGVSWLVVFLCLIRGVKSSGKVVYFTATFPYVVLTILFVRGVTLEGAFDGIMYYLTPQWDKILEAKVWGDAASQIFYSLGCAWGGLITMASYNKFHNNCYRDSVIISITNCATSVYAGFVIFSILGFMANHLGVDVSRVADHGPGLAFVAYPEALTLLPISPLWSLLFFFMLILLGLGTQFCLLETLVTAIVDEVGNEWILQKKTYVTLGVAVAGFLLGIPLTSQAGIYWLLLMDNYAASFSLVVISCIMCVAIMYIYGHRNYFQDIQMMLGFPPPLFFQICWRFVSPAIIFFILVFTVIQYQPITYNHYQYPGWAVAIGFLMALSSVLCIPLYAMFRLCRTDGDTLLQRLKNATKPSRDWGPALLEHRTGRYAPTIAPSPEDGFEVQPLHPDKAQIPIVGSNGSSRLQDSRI
Test: Radioligand binding assay using recombinant CHO cell membranes expressing human GlyT1
Details: human GlyT1c-expressing CHO cell membranes; read-out: radioligand binding Kiapp
Description: 2. Radioligand binding assays using recombinant CHO cell membranes expressing human GlyT1: […]
Structures can show the parent of a compound that is named as a salt.
# Ki values compiled below

Worked examples follow.
CN(CCOc1ccc2c(c1)C(Cc1ccccc1)C(N1CCCC1)CC2)S(=O)(=O)c1cn(C)cn1 (centres unmarked) [Example 101, hydrochloride] = ≤ 100 nM
CCCS(=O)(=O)N1CC(c2ccc3c(c2)C(Cc2ccccc2)C(N)CC3)C1 (centres unmarked) [Example 284, hydrochloride] = ≤ 1000 nM
CCCS(=O)(=O)NCCCc1ccc2c(c1)C(Cc1cccc(Cl)c1)C(N)CC2 (centres unmarked) [Example 297, hydrochloride] = ≤ 100 nM
CCOC(=O)NC1CCc2ccc(OCCNS(=O)(=O)c3cnn(C)c3)cc2C1Cc1ccc(Cl)cc1Cl (centres unmarked) [Example 62] = ≤ 10000 nM
CCNC1CCc2ccc(CCCNS(=O)(=O)CC3CC3)cc2C1Cc1cccc(F)c1 (centres unmarked) [Example 221, hydrochloride] = ≤ 100 nM
CNC1CCc2ccc(CNS(=O)(=O)c3ccn(C)c3)cc2C1Cc1ccccc1 (centres unmarked) [Example 190, hydrochloride] = ≤ 10 nM
CNC1CCc2ccc(CNS(=O)(=O)C3CCC3)cc2C1Cc1ccccc1 (centres unmarked) [Example 188, hydrochloride] = ≤ 100 nM
O=S(=O)(NCc1ccc2c(c1)C(Cc1ccccc1)C(N1CCC1)CC2)c1ccccn1 (single isomer, unassigned; enantiomer 1) [Example 253] = ≤ 1000 nM

Any idea what Ki was measured for Cn1cc(S(=O)(=O)NCc2ccc3c(c2)C(Cc2cccc(F)c2)C(N)CC3)cn1 (centres unmarked) [Example 178, hydrochloride] ?
≤ 10 nM

Any idea what Ki was measured for CCCS(=O)(=O)N(C)Cc1ccc2c(c1)C(Cc1ccccc1)C(NC)CC2 (centres unmarked) [Example 275, trifluoroacetate] ?
≤ 100 nM

Any idea what Ki was measured for NC1CCc2ccc(OCCNS(=O)(=O)c3cccnc3)cc2C1Cc1ccc(Cl)c(Cl)c1 (centres unmarked) [Example 5, hydrochloride] ?
≤ 1000 nM

Any idea what Ki was measured for CCCS(=O)(=O)NCCOc1ccc2c(c1)C(Cc1ccc(Cl)cc1Cl)C(N)CC2 (centres unmarked) [Example 75, hydrochloride] ?
≤ 1000 nM

Any idea what Ki was measured for CNC1CCc2ccc(OCCNS(=O)(=O)CC3CC3)cc2C1Cc1cccc(F)c1 (single isomer, unassigned; enantiomer 1) [Example 240, hydrochloride] ?
≤ 10 nM

Any idea what Ki was measured for CCCCCS(=O)(=O)NCCOc1ccc2c(c1)C(Cc1ccc(Cl)c(Cl)c1)C(N)CC2 (centres unmarked) [Example 114, hydrochloride] ?
≤ 1000 nM

---

Target: human GlyT1c (Homo sapiens (Human), UniProt P48067)
Experiment: [3H]-Glycine uptake into recombinant CHO cells expressing human GlyT1
Type: cell-based
Details: hGlyT1c_5_CHO cells, 200 nM [3H]-glycine
Structures can show the parent of a compound that is named as a salt.
# IC50 values compiled below

CCCS(=O)(=O)N(C)Cc1ccc2c(c1)[C@H](Cc1ccccc1)[C@H](N)CC2 (relative stereo) [Example 45, hydrochloride] = ≤ 100 nM
CCOC(=O)NC1CCc2ccc(OCCNS(=O)(=O)c3cccs3)cc2C1Cc1cccc(Cl)c1 (stereo not drawn) = ≤ 10000 nM

Any idea what IC50 was measured for Cn1cc(S(=O)(=O)NCCOc2ccc3c(c2)C(Cc2ccc(Cl)c(Cl)c2)C(N)CC3)cn1 (stereo not drawn) [Example 4, hydrochloride] ?
≤ 10 nM

Any idea what IC50 was measured for NC1CCc2ccc(OCCNS(=O)(=O)c3cccnc3)cc2C1Cc1ccc(Cl)c(Cl)c1 (stereo not drawn) [Example 5, hydrochloride] ?
≤ 1000 nM

Any idea what IC50 was measured for CN(C)S(=O)(=O)NCCOc1ccc2c(c1)C(Cc1ccc(Cl)c(Cl)c1)C(N)CC2 (stereo not drawn) [Example 25, hydrochloride] ?
≤ 1000 nM

Any idea what IC50 was measured for Cc1csc(S(=O)(=O)NCCOc2ccc3c(c2)C(Cc2cccc(Cl)c2)C(N)CC3)c1 (stereo not drawn) [Example 67, hydrochloride] ?
≤ 1000 nM

Any idea what IC50 was measured for NC1CCc2ccc(OCCNS(=O)(=O)c3cccs3)cc2C1Cc1ccc(Cl)cc1Cl (stereo not drawn) [Example 72, hydrochloride] ?
≤ 10000 nM

Any idea what IC50 was measured for CCOC(=O)NC1CCc2ccc(OCCNS(=O)(=O)CC)cc2C1Cc1cccc(Cl)c1 (stereo not drawn) ?
≤ 100000 nM

Any idea what IC50 was measured for Cc1cc(S(=O)(=O)NCCOc2ccc3c(c2)C(Cc2cccc(Cl)c2)C(N)CC3)c(C)s1 (stereo not drawn) [Example 69, hydrochloride] ?
≤ 10000 nM
